pKi values by entry
# target-entity: D(4) dopamine receptor (Homo sapiens)
# Sequence (P21917 whole entry): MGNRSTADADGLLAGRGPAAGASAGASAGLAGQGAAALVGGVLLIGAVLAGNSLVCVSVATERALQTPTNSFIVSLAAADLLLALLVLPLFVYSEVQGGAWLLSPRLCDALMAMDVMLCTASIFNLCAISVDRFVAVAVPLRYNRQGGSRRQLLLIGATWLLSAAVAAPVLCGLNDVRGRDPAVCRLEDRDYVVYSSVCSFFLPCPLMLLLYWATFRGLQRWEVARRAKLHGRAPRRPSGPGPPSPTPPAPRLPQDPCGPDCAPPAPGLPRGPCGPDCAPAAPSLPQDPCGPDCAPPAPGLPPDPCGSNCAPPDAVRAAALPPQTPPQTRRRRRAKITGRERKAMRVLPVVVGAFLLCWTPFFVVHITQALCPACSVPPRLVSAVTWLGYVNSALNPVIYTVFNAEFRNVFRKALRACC
# method-summary: Binding affinity towards human cloned Dopamine receptor D4.4 expressed in CHO cells using [3H]spiperone as radioligand
# Assay type: cell-based
pKi: −log10 of the molar value.
measured-metric: pKi

# structure, target-entity, result
records = [
    ("Oc1ccccc1N1CCN(Cc2ccccc2)CC1", "D(4) dopamine receptor (Homo sapiens)", "< 6.40"),
    ("Oc1cccc(N2CCN(Cc3ccccc3)CC2)c1", "D(4) dopamine receptor (Homo sapiens)", "< 6.40"),
    ("CS(=O)(=O)Nc1cc(OCCNCc2cccs2)ccc1F", "D(4) dopamine receptor (Homo sapiens)", "< 6.40"),
]

----------
# target-entity: D(2) dopamine receptor (Homo sapiens)
# Sequence (P14416 whole entry): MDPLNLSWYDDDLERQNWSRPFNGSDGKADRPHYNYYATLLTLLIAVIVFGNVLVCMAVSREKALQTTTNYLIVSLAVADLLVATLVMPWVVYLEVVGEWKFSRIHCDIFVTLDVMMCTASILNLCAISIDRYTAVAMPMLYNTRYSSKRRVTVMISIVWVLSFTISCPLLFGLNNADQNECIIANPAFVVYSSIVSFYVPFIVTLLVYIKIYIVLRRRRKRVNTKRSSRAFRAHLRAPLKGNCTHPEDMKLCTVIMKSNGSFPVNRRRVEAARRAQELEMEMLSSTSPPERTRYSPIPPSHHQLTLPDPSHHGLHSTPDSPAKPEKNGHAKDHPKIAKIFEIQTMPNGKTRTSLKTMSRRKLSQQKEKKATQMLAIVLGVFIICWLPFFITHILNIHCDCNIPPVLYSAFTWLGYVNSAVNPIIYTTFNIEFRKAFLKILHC
pKi: −log10 of the molar value.

# structure, pKi
data = [
    ("c1ccc(CN2CCN(c3ccccc3)CC2)cc1", "< 6.52"),
    ("Oc1ccc(N2CCN(Cc3ccccc3)CC2)cc1", "< 6.52"),
    ("Oc1ccccc1N1CCN(Cc2ccccc2)CC1", "< 6.52"),
    ("CS(=O)(=O)Nc1cc(OCCNCc2ccccc2)ccc1F", "< 5.00"),
    ("Nc1cc(OCCNCc2ccccc2)ccc1Cl", "< 6.00"),
]

----------
pKi: −log10 of the molar value.
Record type: pKi measurement. Applies to: D(2) dopamine receptor (Rattus norvegicus, UniProt P61169)
measured-metric: pKi

# structure, measured-metric, quantitative-readout
measured = [
    ("Oc1cccc(OCCNCc2ccccc2)c1", "pKi", 7.00),
    ("c1ccc(CN2CCN(c3ccccc3)CC2)cc1", "pKi", 6.91),
    ("CS(=O)(=O)Nc1cc(OCCNCc2ccccc2)ccc1F", "pKi", 7.62),
    ("CS(=O)(=O)Nc1cc(OCCNCc2ccccc2)ccc1Cl", "pKi", 8.52),
    ("Oc1ccccc1N1CCN(Cc2ccccc2)CC1", "pKi", 6.93),
    ("CS(=O)(=O)Nc1cccc(OCCNCc2ccccc2)c1", "pKi", 7.53),
    ("CS(=O)(=O)Nc1cc(OCCNCc2cccs2)ccc1Cl", "pKi", 8.22),
]

----------
# target-entity: D(2) dopamine receptor (Rattus norvegicus)
pKi: −log10 of the molar value.
Assign 1 whenever pKi does not fall below 8; assign 0 whenever it does.

# structure, classification
data = [
    ("CS(=O)(=O)Nc1cccc(OCCNCc2ccccc2)c1", 1),
    ("c1ccc(CNCCOc2ccccc2)cc1", 0),
    ("Oc1ccc(OCCNCc2ccccc2)cc1", 0),
    ("CS(=O)(=O)Nc1cc(OCCNCc2cccs2)ccc1Cl", 1),
    ("Nc1cc(OCCNCc2ccccc2)ccc1Cl", 0),
]

----------
# target-entity: D(2) dopamine receptor (Rattus norvegicus, UniProt P61169)
# Sequence (P61169 whole entry): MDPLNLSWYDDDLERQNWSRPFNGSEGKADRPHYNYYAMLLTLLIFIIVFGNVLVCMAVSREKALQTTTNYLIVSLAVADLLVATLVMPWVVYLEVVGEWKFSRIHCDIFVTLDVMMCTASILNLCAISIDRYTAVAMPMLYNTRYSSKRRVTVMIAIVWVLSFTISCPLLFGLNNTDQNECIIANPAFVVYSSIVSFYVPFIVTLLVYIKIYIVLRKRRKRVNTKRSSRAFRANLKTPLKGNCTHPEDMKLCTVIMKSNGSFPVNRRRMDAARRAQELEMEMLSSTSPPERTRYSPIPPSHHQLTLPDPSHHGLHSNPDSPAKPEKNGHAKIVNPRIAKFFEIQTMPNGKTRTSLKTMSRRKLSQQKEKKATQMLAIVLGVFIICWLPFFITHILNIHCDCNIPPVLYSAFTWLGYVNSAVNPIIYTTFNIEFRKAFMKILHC
pKi: −log10 of the molar value.
Below, each entry is listed with its recorded pKi.
measured-metric: pKi

# structure, quantitative-readout
measured = [
    ("CS(=O)(=O)Nc1cc(OCCNCc2ccccc2)ccc1F", 8.10),
    ("c1ccc(CN2CCN(c3ccccc3)CC2)cc1", 7.79),
    ("Oc1ccccc1OCCNCc1ccccc1", 8.02),
]
